# Tested on: Aβ40 secretion
# TEST_DESCRIPTION: Aβ40 secretion by H4 cells expressing APP695, sandwich ELISA
# Type: cell-based, human
# CONDITION_CONTEXT: Homo sapiens, about 1 μM to about 100 μM, medium collected at 24 or 48 hours, several numbers = independent sets of assays
Answer each item with its documented IC50.
Report the value in µM with no unit label.

[Q] Provide only the value of recorded IC50 for `O=C(O)CCc1cccc(-n2c(-c3ccccc3)cc(-c3ccccc3)c2C2CC2)c1`
[A] 48

[Q] Provide only the value of recorded IC50 for `O=C(O)c1cccc(-n2c(-c3ccccc3)cc(-c3ccccc3)c2C2CC2)c1`
[A] 74

[Q] Provide only the value of recorded IC50 for `Cc1c(-c2cccc(C(F)(F)F)c2)cc(-c2ccccc2)n1-c1cccc(CCC(=O)O)c1`
[A] 28

[Q] Provide only the value of recorded IC50 for `O=C(O)CCc1cccc(-n2c(CCc3ccccc3)ccc2-c2ccccc2)c1`
[A] 100

[Q] Provide only the value of recorded IC50 for `O=C(O)c1cccc(-n2c(CCc3ccccc3)ccc2-c2ccccc2)c1`
[A] 70

[Q] Provide only the value of recorded IC50 for `CC(C)(C)Cc1c(-c2ccccc2)cc(-c2ccccc2)n1-c1ccc(CCCC(=O)O)cc1`
[A] 63

[Q] Provide only the value of recorded IC50 for `Cc1c(-c2ccccc2)cc(-c2ccccc2)n1-c1ccc(C(=O)O)cc1`
[A] 54
